experiment: qHTS drug screen for cell cycle checkpoint inhibitors in PARPi-resistant BRCA-mutant ovarian cancer cell lines. (AID 1963452); settings: PEO1/OlaR viability, CellTiter-Glo luminescence, 96 h; measured here: PEO1 parental Z-AUC; stronger effect = lower value
In this section we review reported Z-AUC values for a set of molecules.
PARAMETER: Z-AUC

[[record]]
molecule = "O=C1[C@H](CC[C@H](O)c2ccc(F)cc2)[C@@H](c2ccc(O)cc2)N1c1ccc(F)cc1"
meas_value = 1.08

[[record]]
molecule = "C=C[C@H]1CN2CC[C@H]1C[C@@H]2[C@@H](O)c1ccnc2ccc(OC)cc12"
meas_value = -0.182

[[record]]
molecule = "Cc1ccc(-c2ncc(Cl)cc2-c2ccc(S(C)(=O)=O)cc2)cn1"
meas_value = 0.717

[[record]]
molecule = "O=c1[nH]c(=O)n([C@H]2C[C@H](O)[C@@H](CO)O2)cc1F"
meas_value = -1.95

[[record]]
molecule = "CCN1CCN(C(=O)N[C@@H](C(=O)N[C@@H]2C(=O)N3C(C(=O)O)=C(CSc4nnnn4C)CS[C@H]23)c2ccc(O)cc2)C(=O)C1=O"
meas_value = 0.559

[[record]]
molecule = "Cc1ccc(O)c([C@H](CCN(C(C)C)C(C)C)c2ccccc2)c1"
meas_value = -0.8

[[record]]
molecule = "COc1cc([C@H]2Oc3cc([C@H]4Oc5cc(O)cc(O)c5C(=O)[C@@H]4O)ccc3O[C@@H]2CO)ccc1O"
meas_value = 1.29

[[record]]
molecule = "CCCCCN=C(N)N/N=C/c1c[nH]c2ccc(OC)cc12"
meas_value = -1.05

[[record]]
molecule = "CCCCCCCCCCC[C@@H](C[C@@H]1OC(=O)[C@H]1CCCCCC)OC(=O)[C@H](CC(C)C)NC=O"
meas_value = 1.61

[[record]]
molecule = "CC(=O)O[C@]1(C(C)=O)CC[C@H]2[C@@H]3C=C(C)C4=CC(=O)CC[C@]4(C)[C@H]3CC[C@@]21C"
meas_value = 0.601

[[record]]
molecule = "Nc1nc(Cl)nc2c1ncn2[C@@H]1O[C@H](CO)[C@@H](O)[C@@H]1F"
meas_value = -1.93

[[record]]
molecule = "Clc1cccc(C(c2ccc3nc[nH]c3c2)n2ccnc2)c1 (configuration not stated)"
meas_value = 0.0386

